# testedSystem: Fes (UniProt P07332)
# Sequence (P07332 whole entry, looked up): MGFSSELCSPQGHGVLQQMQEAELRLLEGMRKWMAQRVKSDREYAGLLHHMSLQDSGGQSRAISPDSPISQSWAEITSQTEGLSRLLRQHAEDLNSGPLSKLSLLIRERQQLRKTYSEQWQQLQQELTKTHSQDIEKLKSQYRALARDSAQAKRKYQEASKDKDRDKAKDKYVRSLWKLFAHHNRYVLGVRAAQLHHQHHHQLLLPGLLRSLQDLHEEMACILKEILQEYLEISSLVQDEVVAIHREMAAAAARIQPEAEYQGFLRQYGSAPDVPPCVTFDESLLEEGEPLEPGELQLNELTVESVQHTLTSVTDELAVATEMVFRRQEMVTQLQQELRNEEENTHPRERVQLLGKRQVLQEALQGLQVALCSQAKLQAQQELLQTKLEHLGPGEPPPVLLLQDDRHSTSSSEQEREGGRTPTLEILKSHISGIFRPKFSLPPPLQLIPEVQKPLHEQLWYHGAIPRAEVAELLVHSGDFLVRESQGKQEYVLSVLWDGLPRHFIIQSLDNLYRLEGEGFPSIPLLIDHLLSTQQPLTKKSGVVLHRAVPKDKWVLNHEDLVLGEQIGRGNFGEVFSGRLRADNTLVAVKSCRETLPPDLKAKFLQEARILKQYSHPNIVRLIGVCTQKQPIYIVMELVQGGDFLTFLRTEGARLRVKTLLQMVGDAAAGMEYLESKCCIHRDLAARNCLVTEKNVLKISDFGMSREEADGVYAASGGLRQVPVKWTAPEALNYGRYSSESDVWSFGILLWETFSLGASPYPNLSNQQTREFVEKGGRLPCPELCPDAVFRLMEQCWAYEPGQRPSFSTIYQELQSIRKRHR
# experimentalDetails: phosphorylation enrichment, bacterial display (enrichment ratio); higher = better substrate or ligand; peptides without Tyr show the background;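 further: 11-residue human phosphosite peptides and single-mutation variants displayed on the E. coli surface, counted by deep sequencing, each peptide's frequency after selection divided by its frequency in the unselected input library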;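 further: frequency after pTyr selection over input frequency; kinase dosed for 20-30% of maximal phosphorylation in three min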
recordedMetric: phosphorylation enrichment

- seq: "ARTNEYKIIRT [INA_Y87]"
  obsValue: 0.469
- seq: "GKSFIYAAFHA [KCNT1_Y563_T562I]"
  obsValue: 1.25
- seq: "YTGNTYRVGDT [FN1_Y106]"
  obsValue: 0.775
- seq: "SIKDKYVTAFF [KCNH2_Y611_L615F_YF]"
  obsValue: 0.731
- seq: "VITTLYIGFLG [KCNQ1_Y267_L262V]"
  obsValue: 1.25
- seq: "RIFDYYSARKT [STOX1_Y858_A863T]"
  obsValue: 0.665
- seq: "ESDYTYSSSYE [SRPK2_Y427]"
  obsValue: 1.15
- seq: "WRRLIYRCQVG [NR2E3_Y81_R76W]"
  obsValue: 0.784
- seq: "RGLQVYHRRNA [LRP2_Y2010]"
  obsValue: 1.05
- seq: "LTTEAYEWEPR [ELMOD3_Y61]"
  obsValue: 1.89
- seq: "CTTIHYFFMCN [TP53_Y234_N235Y_YF]"
  obsValue: 0.982
- seq: "SGSIHYSRVPR [GLB1_Y57]"
  obsValue: 0.763
- seq: "FHKALYTVRTF [PDE6C_Y266_S270T_YF]"
  obsValue: 1.02
- seq: "LQLLGYRPVYS [CHST6_Y358]"
  obsValue: 1.24
- seq: "VYSTDCYRVGG [NTRK2_Y706_Y706C]"
  obsValue: 1.16
- seq: "AVAFVYFKSIG [ADGRL4_Y301_YF]"
  obsValue: 1.6
- seq: "YNDSAYNQQLI [ZPLD1_Y198_T197A]"
  obsValue: 0.93
- seq: "PLYSKYWPNHI [GREB1L_Y1560_R1558S]"
  obsValue: 1.27
- seq: "SGPRHYTIAAL [TTR_Y125_R124H]"
  obsValue: 0.66
- seq: "FAGRDYSLDEF [MYOF_Y1705_G1701A_YF]"
  obsValue: 0.969

---

# testedSystem: Fes (UniProt P07332)
# experimentalDetails: phosphorylation enrichment, bacterial display (enrichment ratio); higher = better substrate or ligand; peptides without Tyr show the background
recordedMetric: phosphorylation enrichment

- seq: "YETVKYFNNER [ABCB7_Y345]"
  recordedMetric: "phosphorylation enrichment"
  obsValue: 0.869
- seq: "HQIQSYTCEID [DES_Y331]"
  recordedMetric: "phosphorylation enrichment"
  obsValue: 1.27
- seq: "LEFNEYFRDLN [HPRT1_Y198_D194E_YF]"
  recordedMetric: "phosphorylation enrichment"
  obsValue: 1.66
- seq: "VKPHRYRPGTV [H3-5_Y41]"
  recordedMetric: "phosphorylation enrichment"
  obsValue: 0.573
- seq: "DDFDLYGGEKF [PTPN11_Y66_Y62D_YF]"
  recordedMetric: "phosphorylation enrichment"
  obsValue: 1.38
- seq: "MCDKEYYSVHN [MET_Y1234_Y1230C]"
  recordedMetric: "phosphorylation enrichment"
  obsValue: 0.862
- seq: "LMVFEYMRHGD [NTRK1_Y591]"
  recordedMetric: "phosphorylation enrichment"
  obsValue: 1.08
- seq: "YCRITYDIFPF [INTS13_Y67_M66T]"
  recordedMetric: "phosphorylation enrichment"
  obsValue: 1.59
- seq: "KYACSYTPVKA [FLNB_Y708_T703K]"
  recordedMetric: "phosphorylation enrichment"
  obsValue: 0.758
- seq: "IKNPQYFSDAC [NTRK1_Y496_E492K]"
  recordedMetric: "phosphorylation enrichment"
  obsValue: 0.74
- seq: "SSPQPYLVPFL [TAF4_Y652]"
  recordedMetric: "phosphorylation enrichment"
  obsValue: 0.78
- seq: "EEVPLYESATT [DCC_Y809_G805E]"
  recordedMetric: "phosphorylation enrichment"
  obsValue: 1.32
- seq: "GGRKGYGDFSR [RECQL5_Y478]"
  recordedMetric: "phosphorylation enrichment"
  obsValue: 0.622
- seq: "EQKKFYNAVKK [SCN5A_Y1495_M1498V_YF]"
  recordedMetric: "phosphorylation enrichment"
  obsValue: 0.57
- seq: "GTVRDYPDFSP [ANXA3_Y15]"
  recordedMetric: "phosphorylation enrichment"
  obsValue: 0.79
- seq: "MDYRSYPREYG [RBM10_Y44]"
  recordedMetric: "phosphorylation enrichment"
  obsValue: 0.626
- seq: "GRPLFYWLTGC [LYZL6_Y140]"
  recordedMetric: "phosphorylation enrichment"
  obsValue: 1.13
- seq: "FCVVRYCWLRR [MPZ_Y181_Y177C]"
  recordedMetric: "phosphorylation enrichment"
  obsValue: 0.76
